List of TGI values.
tested on: BT-549 breast; experiment: NCI tumour cell line growth inhibition, 48 h

# compound, system, result.unit, result.modifier, TGI
rows = [
    ("Nc1ncnc2c1sc1nc3ccccc3n12", "BT-549 breast", "µM", ">", 100),
    ("CC(=O)O[C@H]1C(=O)[C@@]2(C)[C@H]([C@H](OC(=O)c3cccc([N+](=O)[O-])c3)[C@]3(O)C[C@H](OC(=O)[C@H](O)[C@@H](NC(=O)c4ccccc4)c4ccccc4)C(C)=C1C3(C)C)[C@]1(OC(C)=O)CO[C@@H]1C[C@@H]2O", "BT-549 breast", "µM", ">", 25),
    ("CCN(Cc1ccc(C)cc1)c1ccc(CO)c(Cl)c1", "BT-549 breast", "µM", "=", 19),
    ("Fc1cc2[nH]ncc2c2c3c(c(-c4cn[nH]c4C(F)(F)F)nc12)CCCC3", "BT-549 breast", "µM", "=", 2.96),
    ("COc1cc(OC)c2c(c1)OC(c1ccccc1)CC2=O (stereo not given)", "BT-549 breast", "µM", ">", 10),
]

Origin of the recorded values: PubChem BioAssay (NCI)
